Experiment description: chemical genetic growth profiling, strain panel (AID 1159580);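 further: tested at 20 µM; growth read once vehicle control cultures reached saturation at 30 °C; 1 = growth at the plate median or of vehicle wells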
Applied conditions: S. cerevisiae deletion strains, growth OD, locus YBL105C, strain PKC1
Hit rate of the full screen: of about 5,500 compounds, about 2,000 (36%) were called active. Not shown: some 18% with an inconclusive outcome. No stated cut-off is given here; in the data, active means normalized growth mostly below about 0.91 (no sharp cut-off); inconclusive means no clear call, values can overlap the other calls; inactive means mostly above about 0.92. The list shows a part of the results.
Outcomes: active, inactive

{"columns": ["Compound", "Label"],
 "data": [
  ["O=[N+]([O-])c1ccc(S(=O)(=O)c2ccccc2)nc1S(=O)(=O)c1ccccc1", "inactive"],
  ["CC(C)Cc1ccc(C(C)C(=O)Nc2nn(C)c3ccccc23)cc1 (stereo not drawn)", "inactive"],
  ["C=CCc1c(CCC)nc(-c2ccccn2)[nH]c1=O", "inactive"],
  ["Cc1nc(-c2ccccn2)nc(N(C)Cc2ccccc2)c1Cl", "inactive"],
  ["OC1CCN(c2cc(C(F)(F)F)nc3cc(Cl)cc(Cl)c23)CC1", "inactive"],
  ["O=C(NCC1COc2ccccc2O1)c1ccc(Cl)cc1 (stereo not drawn)", "inactive"],
  ["Clc1ccc2c(c1)c1ccccc1n2CN1CCOCC1", "inactive"],
  ["COc1ccc2nc3ccccc3c(N)c2c1", "active"],
  ["O=C(Nc1ccc(Cl)cc1)SCc1c(Cl)cccc1Cl", "inactive"],
  ["O=S(=O)(c1ccc(Cl)cc1)N(Cc1cccnc1)Cc1ccc(Cl)cc1Cl", "inactive"],
  ["CCCc1nc(-c2ccccn2)[nH]c(=O)c1CC1CC1", "inactive"],
  ["Fc1cccc(Cl)c1CSc1n[nH]c(-c2cc(C(F)(F)F)cc(C(F)(F)F)c2)n1", "inactive"],
  ["CC(C)(C)C(=O)N(Cc1cccnc1)Cc1ccc(Cl)cc1Cl", "inactive"],
  ["O=S(=O)(NC(=S)Nc1ccc(Cl)c(Cl)c1)c1ccccc1", "inactive"],
  ["O=[N+]([O-])c1cnc(Sc2nnc(SCc3cccc(C(F)(F)F)c3)s2)s1", "active"],
  ["O=C(Nc1ccccc1Sc1ccc([N+](=O)[O-])cc1[N+](=O)[O-])C(Cl)(Cl)Cl", "inactive"],
  ["O=C(NCCc1ccncc1)c1ccc(Cl)c(Cl)c1", "inactive"],
  ["Fc1ccc(NC(=S)N2CCCN(Cc3ccc(Cl)cc3Cl)CC2)cc1", "inactive"],
  ["O=C(c1cccs1)N(Cc1cccnc1)Cc1ccc(Cl)cc1Cl", "inactive"],
  ["Cc1csc(NC(=O)Nc2ccc(C(F)(F)F)cc2)c1Cl", "inactive"],
  ["O=C(c1ccc(Cl)cc1)N(Cc1ccccc1)Cc1cccnc1", "inactive"],
  ["O=C(N/N=C\\c1cc(Br)ccc1O)c1ccccc1Oc1ccccc1", "inactive"],
  ["N#Cc1c2ccccc2nc2ccccc12", "active"],
  ["Cc1nc(-c2ccccn2)nc(SCc2ccccc2)c1Cl", "inactive"],
  ["Cc1nc(-c2cccnc2)nc(NCc2ccccc2)c1Cl", "inactive"],
  ["Cc1nc(-c2ccccn2)[nH]c(=O)c1Cc1c(Cl)cccc1Cl", "inactive"],
  ["O=C(CSCc1csc2ccccc12)Nc1ccc(F)c(Cl)c1", "inactive"],
  ["Cc1ccc(C)c(CSc2nc(C3CCCCC3)c(C#N)c(=O)[nH]2)c1", "inactive"]
]}

* * *

Experiment description: chemical genetic growth profiling, strain panel (AID 1159580);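 further: tested at 20 µM; growth read once vehicle control cultures reached saturation at 30 °C; 1 = growth at the plate median or of vehicle wells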
Applied conditions: S. cerevisiae deletion strains, growth OD, locus YLR058C, strain SHM2, stronger effect = lower value
About 2,000 (36%) of roughly 5,500 compounds were called active. Roughly 18% stayed inconclusive and do not appear here. This is one part of the list.
Recorded normalized growth values for a group of molecules are listed next.
Measurement name: normalized growth

{"columns": ["Molecule", "Test result"],
 "data": [
  ["C[C@@H]1OC(O[C@H]2[C@H](O)[C@@H](O)[C@H](OC[C@H]3O[C@@H](OC(=O)[C@]45CCC(C)(C)CC4C4=CCC6[C@@]7(C)CC[C@H](OC8OC[C@H](O)[C@H](O)[C@H]8OC8O[C@@H](C)[C@H](O)[C@@H](O)[C@H]8O)[C@@](C)(CO)C7CC[C@@]6(C)[C@]4(C)CC5)[C@H](O)[C@@H](O)[C@@H]3O)O[C@@H]2CO)[C@H](O)[C@H](O)[C@H]1O (some centres not stated)", 0.988],
  ["C/C=C(/C)C(=O)O[C@@H]1[C@H](OC(C)=O)[C@@]2(CO)C(CC1(C)C)C1=CCC3[C@@]4(C)CC[C@H](O[C@@H]5O[C@H](C(=O)O)[C@@H](O[C@@H]6O[C@H](CO)[C@@H](O)[C@H](O)[C@H]6O)[C@H](O)[C@H]5O[C@@H]5O[C@H](CO)[C@@H](O)[C@H](O)[C@H]5O)[C@](C)(CO)C4CC[C@@]3(C)[C@]1(C)C[C@H]2O (some centres not stated)", 1.01],
  ["Fc1ccc(C(c2ccccc2)(c2ccccc2F)n2ccnc2)cc1 (configuration not stated)", 0.0587],
  ["C/C=C(/C)C(=O)OC1CCC2(C)C3CCC4C5(O)CC(O)C6(O)C(CN7CC(C)CCC7C6(C)O)C5(O)CC42OC13O (configuration not stated)", 0.949],
  ["O=c1[nH]cc(F)c(=O)[nH]1", 0.746],
  ["NNC(=O)c1ccncc1", 1.01],
  ["COc1cc(C(=O)O[C@H]2CC[C@@]3(C)[C@@H]4CC[C@H]5[C@]6(O)C[C@H](O)[C@@]7(O)[C@@H](CN8C[C@@H](C)CC[C@H]8[C@@]7(C)O)[C@]6(O)C[C@@]53O[C@]24O)cc(OC)c1OC", 0.978],
  ["NC(Cc1c[nH]c2ccccc12)C(=O)O (configuration not stated)", 0.975],
  ["COc1c(CC(=O)c2cc3c(cc2O)OC(C)(C)C(O)C3)ccc2c1C=CC(C)(C)O2 (configuration not stated)", 0.999],
  ["C[C@@H]1OC(O[C@H]2C(O[C@H]3CC[C@@]4(C)C(CC[C@]5(C)C4CC=C4C6CC(C)(C)CC[C@]6(C(=O)O)CC[C@]45C)[C@]3(C)CO)OC[C@H](O)[C@@H]2O)[C@H](O)[C@H](O)[C@H]1O (some centres not stated)", 0.414],
  ["Cc1cc(O)c2c(c1)Cc1cccc(O)c1C2=O", 0.922],
  ["C[C@H]1[C@H](C)CC[C@]2(CO)CC[C@]3(C)C(=CCC4[C@@]5(C)CC[C@H](O)C(C)(C)C5CC[C@]43C)[C@H]12 (some centres not stated)", 1.02],
  ["Nc1ccc(S(=O)(=O)Nc2cnc3ccccc3n2)cc1", 0.971],
  ["COc1ccc2c(c1)c(CC(=O)O)c(C)n2C(=O)c1ccc(Cl)cc1", 1.02],
  ["CC1(C)CC[C@]2(C(=O)O)CC[C@]3(C)C(=CCC4[C@@]5(C)CC[C@H](O)[C@@](C)(CO)C5CC[C@]43C)C2C1 (some centres not stated)", 1.01],
  ["O=C(COc1ccc(Cl)cc1)N1CCN(Cc2ccc3c(c2)OCO3)CC1", 0.962],
  ["COc1cccc(OC)c1OCCNCC1COc2ccccc2O1 (configuration not stated)", 1.02],
  ["Cc1ccnc(NS(=O)(=O)c2ccc(N)cc2)n1", 1.02],
  ["CCOC(=O)OC(C)OC(=O)C1N2C(=O)C(NC(=O)[C@H](N)c3ccccc3)C2SC1(C)C (some centres not stated)", 0.963],
  ["C#C[C@]1(O)CCC2C3CCC4=CC(=O)CC[C@@H]4C3CC[C@@]21CC (some centres not stated)", 0.998],
  ["O=C1c2c(O)cccc2Cc2cccc(O)c21", 1.01],
  ["C#C[C@]1(OC(C)=O)CCC2C3CCC4=CC(=O)CC[C@@H]4C3CC[C@@]21C (some centres not stated)", 0.965],
  ["OC(CCN1CCCC1)(c1ccccc1)C1CCCCC1 (configuration not stated)", 0.994],
  ["CC(C)(Oc1ccc(CCNC(=O)c2ccc(Cl)cc2)cc1)C(=O)O", 1.01],
  ["CCC(C)C(=O)O[C@H]1[C@H](O)C2C(CN3CC(C)CCC3[C@@]2(C)O)C2C[C@]34O[C@]5(O)C(OC(=O)C(C)(O)CC)CC[C@@]3(C)C5C(OC(C)=O)[C@@H](OC(C)=O)C4[C@@]21O (some centres not stated)", 1.01],
  ["Clc1ccccc1C(c1ccccc1)(c1ccccc1)n1ccnc1", 0.048],
  ["COC(=O)C[C@H]1C(C)(C)C2(O)OC34CC2C(=O)[C@]1(C)C3CC[C@]1(C)C4=CC(=O)O[C@H]1c1ccoc1 (some centres not stated)", 1],
  ["CC(=O)NC(C(=O)O)C(C)(C)SN=O (configuration not stated)", 1.01],
  ["NC12CC3CC(CC(C3)C1)C2", 1.02],
  ["CC1(C)CC[C@]2(C(=O)O)CC[C@]3(C)C(=CCC4[C@@]5(C)CC[C@@H](O)C(C)(C)C5CC[C@]43C)C2C1 (some centres not stated)", 1.02],
  ["N#CC(O[C@@H]1O[C@H](CO[C@@H]2O[C@H](CO)[C@@H](O)[C@H](O)[C@H]2O)[C@@H](O)[C@H](O)[C@H]1O)c1ccccc1 (some centres not stated)", 1.01],
  ["O=c1cc(CO)occ1O", 1]
]}
